Field: log10 IC50. Provide a value for each of the molecules that follow.
- tested.on: GSK3B (Homo sapiens, UniProt P49841)
- Sequence (P49841 whole entry): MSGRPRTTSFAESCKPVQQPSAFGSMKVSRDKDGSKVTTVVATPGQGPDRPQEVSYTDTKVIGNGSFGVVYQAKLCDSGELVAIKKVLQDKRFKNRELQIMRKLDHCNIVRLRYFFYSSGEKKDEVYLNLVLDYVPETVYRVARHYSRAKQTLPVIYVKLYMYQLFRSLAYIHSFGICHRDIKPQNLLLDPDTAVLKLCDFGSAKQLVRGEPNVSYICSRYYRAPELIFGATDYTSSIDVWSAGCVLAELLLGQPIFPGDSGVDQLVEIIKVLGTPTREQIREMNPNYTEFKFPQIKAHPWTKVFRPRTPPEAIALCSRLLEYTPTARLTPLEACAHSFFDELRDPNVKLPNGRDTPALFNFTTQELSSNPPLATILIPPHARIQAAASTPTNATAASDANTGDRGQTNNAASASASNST
- protocol.summary: In vitro enzymatic activity assay, GSK3β
- Format: biochemical
- Set-up: Full length human GSK3α or GSK3B expressed as N-terminal GST fusion proteins; GST (N); purchased Carna Biosciences (Japan); host or cells: baculovirus host
- measurement.parameters: 1.0 mM ATP, 1.0 μM peptide substrate, 120 min, 25° C, read-out: Enzyme GSK3β (IC50)
Note the log scale: values are log10 of IC50 expressed in nM.

>>> obs_value("COc1cc(Cl)c(-n2cnc(N)c(C(=O)Nc3cncc(C4(N)CCCC4)c3)c2=O)c(Cl)c1 [Example 21]")
2.34
>>> obs_value("Cc1cc(C(F)F)cc(C)c1-n1cnc(N)c(C(=O)Nc2cncc([C@H]3CCCCN3)c2)c1=O [Example 97]")
2.36
>>> obs_value("Nc1ncn(-c2c(Cl)cc(C(F)(F)F)cc2Cl)c(=O)c1C(=O)Nc1cncc([C@@H]2CCCN2)c1 [Example 118]")
2.65

Fill in log10 IC50 for each of the 4 molecules listed.
1. CN[C@H](C)c1cccc(NC(=O)c2c(N)ncn(-c3c(C)cc(C(F)(F)F)cc3Cl)c2=O)c1 (atropisomer, axis not shown) [Example 33]
2. CN[C@H](C)c1cccc(NC(=O)c2c(N)ncn(-c3c(C)cc(OC)cc3Cl)c2=O)c1 (atropisomer, axis not shown) [Example 2]
3. COC[C@](C)(N)c1cncc(NC(=O)c2c(N)ncn(-c3c(Cl)cc(OC)cc3Cl)c2=O)c1 (single isomer, unassigned) [Example 31]
4. CCNCc1cncc(NC(=O)c2c(N)ncn(-c3c(Cl)cc(-c4cnco4)cc3Cl)c2=O)c1 [Example 200]

2.54
2.60
2.61
2.91
